- TARGET_OF_ASSAY: HIV-1 Env of pseudovirus 92TH021 (HIV-1)
- PROTOCOL_SUMMARY: cell-based or functional assay
MEASURE: Polyclonal Transfectant Neutralization Index
Please state the value as a number alone, without comment.

Worked cases, Polyclonal Transfectant Neutralization Index given:
PGT-130 (B cell culture well 5147_N6) (antibody, V domains shown) VH: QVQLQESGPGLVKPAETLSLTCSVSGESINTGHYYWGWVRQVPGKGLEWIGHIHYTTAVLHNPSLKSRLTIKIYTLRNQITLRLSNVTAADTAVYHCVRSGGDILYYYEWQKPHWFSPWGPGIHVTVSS VL: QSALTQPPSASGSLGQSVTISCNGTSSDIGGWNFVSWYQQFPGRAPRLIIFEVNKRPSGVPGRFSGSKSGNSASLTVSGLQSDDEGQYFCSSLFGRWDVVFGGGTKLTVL; 4.2
PGT-125 (B cell culture well 5123_A6) (antibody, V domains shown) VH: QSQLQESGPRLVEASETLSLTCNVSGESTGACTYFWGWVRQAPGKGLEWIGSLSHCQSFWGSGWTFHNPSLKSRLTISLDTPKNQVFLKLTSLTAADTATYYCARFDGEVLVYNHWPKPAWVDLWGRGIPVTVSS VL: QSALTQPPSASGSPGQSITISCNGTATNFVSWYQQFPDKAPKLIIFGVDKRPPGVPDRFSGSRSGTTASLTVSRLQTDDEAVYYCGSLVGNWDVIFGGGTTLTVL; 50.6

Which value of Polyclonal Transfectant Neutralization Index has been reported for PGT-128 (B cell culture well 5114_A19) (antibody, V domains shown) VH: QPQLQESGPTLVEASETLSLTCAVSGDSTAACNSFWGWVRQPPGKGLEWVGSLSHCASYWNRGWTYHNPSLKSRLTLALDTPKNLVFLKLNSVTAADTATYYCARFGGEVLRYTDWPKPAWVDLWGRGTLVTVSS VL: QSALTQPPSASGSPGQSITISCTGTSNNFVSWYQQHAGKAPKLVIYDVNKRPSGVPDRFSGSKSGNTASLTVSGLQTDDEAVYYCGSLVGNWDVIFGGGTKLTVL in the records?
10

Which value of Polyclonal Transfectant Neutralization Index has been reported for PGT-126 (B cell culture well 5141_B17) (antibody, V domains shown) VH: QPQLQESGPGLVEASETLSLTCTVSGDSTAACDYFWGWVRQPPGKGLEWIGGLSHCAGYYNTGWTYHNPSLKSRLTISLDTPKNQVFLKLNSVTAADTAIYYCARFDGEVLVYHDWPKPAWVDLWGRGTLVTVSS VL: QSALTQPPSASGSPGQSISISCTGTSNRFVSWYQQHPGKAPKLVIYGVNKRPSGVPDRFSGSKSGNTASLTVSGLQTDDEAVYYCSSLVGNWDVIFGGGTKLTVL in the records?
2.74

Which value of Polyclonal Transfectant Neutralization Index has been reported for PGT-127 (B cell culture well 5145_B14) (antibody, V domains shown) VH: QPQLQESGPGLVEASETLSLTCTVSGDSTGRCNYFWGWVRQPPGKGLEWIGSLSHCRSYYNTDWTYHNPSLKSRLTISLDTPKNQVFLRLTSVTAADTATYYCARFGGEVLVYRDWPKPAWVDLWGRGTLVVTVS VL: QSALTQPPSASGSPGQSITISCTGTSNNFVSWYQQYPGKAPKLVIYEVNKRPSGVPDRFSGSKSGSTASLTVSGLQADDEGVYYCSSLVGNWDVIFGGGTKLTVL in the records?
0.94
